- System: microorganisms
- ASSAY_TEXT: Morphology, biofilm and growth disruption by peptides (Table 5)
- Assay type: cell-based
- Parameters: key: A: Peptide aggregates; B: Less hyphal formation; Clumps; Diffuse clumps and small polyps; F: Diffuse growth; H: Thin; I: Growth inhibition; Microcolony formation; Rippled; Small polyps; Thick; W: Halo formation on top, microlonies on bottom
- COND: C. jejuni
- From the text: In certain embodiments peptides that induce alterations in phenotype or other biological activities can also be used as antimicrobial effector moieties.
ASSAY_ENDPOINT: Organism, effect

>  <SUBSTANCE>
PF-069 (FDPVPLKKDKSASKHSHKHNH; Peptide with targeting and/or antimicrobial activity)

>  <READING>
C. jejuni (R)

$$$$
>  <SUBSTANCE>
PF-389 (GLQFKEIAEEFHITTTALQQWHKDNGYPIYNKNNRK; Peptide with targeting and/or antimicrobial activity)

>  <READING>
C. jejuni (R)

$$$$
